# experimental_protocol: qHTS assay for small molecule disruptors of the mitochondrial membrane potential (AID 720635)
# test_parameters: HepG2 mitochondrial membrane potential, Mito-MPS dye ratio; series mostly up to 83.2 µM
Records with an inconclusive call do not appear. The source made the active and inactive calls. The call rests on the fitted dose curve; in most records, active means well fitted inhibition curve with a large enough effect in the signal ratio in the repeat runs; inconclusive means weak or mixed curves, or effect the other way; inactive means flat fitted curve, though single readings scatter; the % refers to the signal ratio.
Please reply with one of these outcomes: active, inactive

>  <molecule>
Nc1ccc([N+](=O)[O-])cc1O

>  <category_label>
active

$$$$

## Task Dear colleague, could you share the recorded outcome for "CN(C)CCOC(c1ccccc1)c1ccccc1" when you have a moment?
## Result inactive

## Task Same again, this time with "Cc1cc(C)nc(NS(=O)(=O)c2ccc(N)cc2)n1"
## Result inactive

---

# experimental_protocol: qHTS assay to identify small molecule agonists of the retinoic acid receptor (RAR) signaling pathway (AID 1159553)
# test_parameters: C3RL4 RARE luciferase reporter, agonist, 6 h; series mostly up to 73.3 µM
Results filed as inconclusive are left out. Activity calls are given as the source filed them. The call rests on the fitted dose curve; in most records, active means well fitted activation curve with a large enough effect in the repeat runs; inconclusive means weak or mixed curves, or effect the other way; inactive means no such curve, though single readings can be large or run the other way.
readout_name: outcome

Use the examples below as a reference point.
>  <entry_smiles>
Nc1c(N=Nc2ccc(-c3ccc(N=Nc4cc(S(=O)(=O)O)c5ccccc5c4N)cc3)cc2)cc(S(=O)(=O)O)c2ccccc12

>  <value_reported>
inactive

$$$$
>  <entry_smiles>
CC(C)c1c(C(=O)Nc2ccccc2)c(-c2ccccc2)c(-c2ccc(F)cc2)n1CC[C@@H](O)C[C@@H](O)CC(=O)O

>  <value_reported>
inactive

$$$$
>  <entry_smiles>
CCCc1cc(=O)[nH]c(=S)[nH]1

>  <value_reported>
inactive

$$$$
>  <entry_smiles>
O=S1(=O)OC(c2ccc(O)cc2)(c2ccc(O)cc2)c2ccccc21

>  <value_reported>
inactive

$$$$

Field: next compound
## Task Would you mind telling me what outcome value was observed for "CN(C)C(=O)Nc1ccc(Cl)c(Cl)c1" ?
## Result inactive

---

# experimental_protocol: qHTS assay to identify small molecule antagonists of the sonic hedgehog signaling (Shh) pathway - cell viability counter screen (AID 1259367); further: nearly all actives have a fitted effect of over 55% in size
# test_parameters: NIH/3T3 Gli1-Luc viability, CellTiter-Fluor, 24 h; series mostly up to 92.4 µM
# Source text: National Center for Advancing Translational Sciences [NCATS] NIH Chemical Genomics Center [NCGC] U.S. Environmental Protection Agency [EPA] National Institutes of Environmental Health Sciences [NIEHS] National Toxicology Program [NTP] U.S. Food and Drug Administration [FDA] The sonic hedgehog (Shh) pathway is essential for normal embryonic development. Dysregulation of the Shh pathway can cause severe developmental defects in organs. […]
Records with an inconclusive call do not appear. Calls of active or inactive are those of the source. Calls come from the whole dose curve; as a rule, active = well fitted cell-killing curve with a large enough effect in the repeat runs; inconclusive = weak or mixed curves, or effect the other way; inactive = no such curve, though single readings can be large or run the other way.
Please reply with one of these outcomes: true (active), false (inactive)

Known results for compounds:
>  <compound>
O=C1c2c(O)cccc2Cc2cccc(O)c21

>  <category_label>
false

$$$$
>  <compound>
CCc1nc(N)nc(N)c1-c1ccc(Cl)cc1

>  <category_label>
false

$$$$
>  <compound>
Cc1ccc(S(=O)(=O)O)cc1

>  <category_label>
false

$$$$
>  <compound>
COc1cccc(O)c1O

>  <category_label>
true

$$$$
>  <compound>
O=C(O)CC(O)C(=O)O (centres undefined)

>  <category_label>
false

$$$$

## Task What did the test return for "COc1ccc(C(Cl)=C(c2ccc(OC)cc2)c2ccc(OC)cc2)cc1" ?
## Result false

## Task Do the same for "NC(CO)(CO)CO" please
## Result false

## Task What do you get for "CC12CCC(CC1)C(C)(C)O2" ?
## Result false

## Task Another: CC(C)NCC(O)c1ccc(O)c(O)c1 (centres undefined)
## Result false

## Task What do you have for "C=CCc1ccc(O)c(OC)c1" ?
## Result false

## Task Let us now turn to "CCCCNC(=O)NS(=O)(=O)c1ccc(C)cc1"
## Result false

## Task Same again, this time with CN(C)CCOC(C)(c1ccccc1)c1ccccn1 (centres undefined)
## Result false

## Task "CS(=O)(=O)OCCCCOS(C)(=O)=O" ?
## Result false

## Task Entry to check: "O=C1O[C@H]([C@@H](O)CO)C(O)=C1O"
## Result false

---

# experimental_protocol: qHTS RealTime-Glo MT Cell Viability Assay in HepG2 cells - 24 hour (AID 1224867); further: nearly all actives have a fitted effect of over 50% in size
# test_parameters: RealTime-Glo luminescence; series mostly up to 76.8 µM
Records with an inconclusive call do not appear. Active and inactive are the calls of the source. Calls follow the shape of the dose curve; as a rule, active = well fitted cell-killing curve with a large enough effect in the repeat runs; inconclusive = weak or mixed curves; inactive = flat fitted curve, though single readings scatter.
Just give me one of these, please: active, inactive

Look over these answered cases.
>  <molecule>
O=C(O)c1ccccc1

>  <category_label>
inactive

$$$$
>  <molecule>
CS(=O)(=O)OCCCCOS(C)(=O)=O

>  <category_label>
inactive

$$$$
>  <molecule>
Cc1cn([C@H]2C=C[C@@H](CO)O2)c(=O)[nH]c1=O

>  <category_label>
inactive

$$$$
>  <molecule>
Cc1cccc(C)c1

>  <category_label>
inactive

$$$$
>  <molecule>
C/C=C/C=C/C(=O)O

>  <category_label>
inactive

$$$$
>  <molecule>
O=C1NC(=O)C(c2ccccc2)(c2ccccc2)N1

>  <category_label>
inactive

$$$$
>  <molecule>
CC(=O)CC(c1ccccc1)c1c(O)c2ccccc2oc1=O (stereo not drawn)

>  <category_label>
inactive

$$$$
>  <molecule>
CC(=O)CCC(=O)O

>  <category_label>
inactive

$$$$

## Task State the result this test recorded for "CC(C)C(=O)Nc1ccc([N+](=O)[O-])c(C(F)(F)F)c1" .
## Result inactive

## Task Also need "Nc1ccc(O)c([N+](=O)[O-])c1" , thanks.
## Result inactive

## Task Try this molecule too: "O=c1[nH]cc(F)c(=O)[nH]1"
## Result inactive

## Task Now consider "NC(=O)c1cccnc1" and answer again.
## Result inactive

---

# experimental_protocol: qHTS RealTime-Glo MT Cell Viability Assay in HepG2 cells - 8 hour (AID 1224873); further: nearly all actives have a fitted effect of over 55% in size
# test_parameters: RealTime-Glo luminescence; series mostly up to 76.8 µM
Inconclusive results are not listed. Active and inactive are the calls of the source. Calls follow the shape of the dose curve; as a rule, active = well fitted cell-killing curve with a large enough effect in the repeat runs; inconclusive = weak or mixed curves; inactive = flat fitted curve, though single readings scatter.
readout_name: outcome

// worked examples, outcome included
>  <compound>
CCOc1ccc(NC(C)=O)cc1

>  <outcome>
inactive

$$$$
>  <compound>
CC(=O)CCC(=O)O

>  <outcome>
inactive

$$$$
>  <compound>
COc1ccc2c(c1)c(CC(=O)O)c(C)n2C(=O)c1ccc(Cl)cc1

>  <outcome>
inactive

$$$$
>  <compound>
O=c1[nH]cc(F)c(=O)[nH]1

>  <outcome>
inactive

$$$$
>  <compound>
CN(C)CCOC(C)(c1ccccc1)c1ccccn1 (configuration not stated)

>  <outcome>
inactive

$$$$

## Task Look at this compound and give its reported outcome. "CCCCCCc1ccc(O)cc1O"
## Result inactive

## Task Likewise for "Cc1ccc(S(=O)(=O)O)cc1" ?
## Result inactive

## Task Could you do the same for "C=C1CC[C@H](O)C/C1=C\C=C1/CCC[C@]2(C)[C@@H]([C@H](C)CCCC(C)C)CC[C@@H]12" , please?
## Result inactive

## Task Here is the next compound: "CN(C)CCOC(c1ccccc1)c1ccccc1"
## Result inactive

## Task What do you have for "Nc1ccc(O)c([N+](=O)[O-])c1" ?
## Result inactive

## Task What do we get for "NS(=O)(=O)c1cc2c(cc1Cl)NCNS2(=O)=O" ?
## Result inactive

## Task Here is the next compound: "CC1(C)O[C@@H]2C[C@H]3[C@@H]4CCC5=CC(=O)C=C[C@]5(C)[C@@]4(F)[C@@H](O)C[C@]3(C)[C@]2(C(=O)CO)O1"
## Result inactive

---

# study_target: Nuclear receptor subfamily 1 group I member 2 (Homo sapiens) (UniProt O75469)
# experimental_protocol: CYP3A4 induction through human pregnane X receptor (PXR) by small molecules, qHTS assay (AID 1346984); further: nearly all actives have a fitted effect of over 40% in size
# test_parameters: DPX-2 HepG2 PXR, CYP3A4-luciferin luminescence, 24 h; series mostly up to 46.1 µM
Inconclusive results are not listed. Calls of active or inactive are those of the source. Calls follow the shape of the dose curve; as a rule, active = well fitted activation curve with a large enough effect in the repeat runs; inconclusive = weak or mixed curves; inactive = no such curve, though single readings can be large or run the other way.
Please reply with one of these outcomes: YES = active, NO = inactive

Use the examples below as a reference point.
>  <compound>
C1CCC(C(CC2CCCCN2)C2CCCCC2)CC1 (centres undefined)

>  <category_label>
NO

$$$$
>  <compound>
O=C(Nc1ncc([N+](=O)[O-])s1)c1cccs1

>  <category_label>
NO

$$$$
>  <compound>
CS(=O)(=O)OCCCCOS(C)(=O)=O

>  <category_label>
NO

$$$$
>  <compound>
CCCCCCc1ccc(O)cc1O

>  <category_label>
NO

$$$$

Here's the next entry for you.
## Task Test call, this compound: "CCOC(N)=O"
## Result NO

---

# study_target: Nuclear receptor subfamily 1 group I member 2 (Homo sapiens) (UniProt O75469)
# experimental_protocol: CYP3A4 induction through human pregnane X receptor (PXR) by small molecules, qHTS assay (AID 1346984); further: nearly all actives have a fitted effect of over 40% in size
# test_parameters: DPX-2 HepG2 PXR, CYP3A4-luciferin luminescence, 24 h; series mostly up to 46.1 µM
Results filed as inconclusive are left out. Activity calls are given as the source filed them. The call rests on the fitted dose curve; in most records, active means well fitted activation curve with a large enough effect in the repeat runs; inconclusive means weak or mixed curves; inactive means no such curve, though single readings can be large or run the other way.
Permitted responses: Yes (active), No (inactive)

As a guide, the following entries are already answered.
>  <entry_smiles>
Cc1c(C(=O)O)c(O)cc2c1C(=O)c1c(O)c([C@@H]3O[C@H](CO)[C@@H](O)[C@H](O)[C@H]3O)c(O)c(O)c1C2=O

>  <category_label>
No

$$$$
>  <entry_smiles>
Nc1c(N=Nc2ccc(-c3ccc(N=Nc4cc(S(=O)(=O)O)c5ccccc5c4N)cc3)cc2)cc(S(=O)(=O)O)c2ccccc12

>  <category_label>
Yes

$$$$
>  <entry_smiles>
CCCCCCCC(=O)OCC(COC(=O)CCCCCCC)OC(=O)CCCCCCC

>  <category_label>
No

$$$$

With those in mind, consider the next compound.
## Task Could you check what this test reported for "CC(O)(P(=O)(O)O)P(=O)(O)O" ?
## Result No
